assaySystem: GDP-bound KRAS protein (aa 1-169), containing both G12D and C118A amino acid substitutions (Homo sapiens, UniProt P01116, C118A/G12D)
Sequence (P01116 1-169 isoform P01116-2 G12D/C118A): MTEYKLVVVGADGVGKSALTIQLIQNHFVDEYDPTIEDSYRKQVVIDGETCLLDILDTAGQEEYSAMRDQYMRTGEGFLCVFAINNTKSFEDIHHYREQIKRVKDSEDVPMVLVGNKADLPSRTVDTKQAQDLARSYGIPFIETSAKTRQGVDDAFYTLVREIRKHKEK
assayName: KRAS G12D Coupled Nucleotide Exchange Assay
Type: biochemical

molecule	readoutUnits	IC50
CCc1c(F)ccc2cc(N)cc(-c3c(F)cc4c(N5CCOCC(C)(O)C5)nc(OC[C@@]56CCCN5C[C@H](F)C6)nc4c3F)c12 (single isomer, unassigned) [Example 71]	nM	14
C[C@@]1(O)COCCN(c2nc(OC[C@@]34CCCN3C[C@H](F)C4)nc3c(F)c(-c4cc(O)cc5ccc(F)c(Cl)c45)c(F)cc23)C1 (single isomer, unassigned)	nM	4
C#Cc1c(F)ccc2cc(O)cc(-c3c(F)cc4c(N5CCC[C@@](C)(O)C5)nc(OC[C@@]56CCCN5C[C@H](F)C6)nc4c3F)c12 (single isomer, unassigned) [Example 14]	nM	2
C[C@@H]1C[C@@H]1c1c(Cl)cc2[nH]ncc2c1-c1c(F)cc2c(N3CCC[C@]4(CNC(=O)O4)C3)nc(OC[C@@]34CCCN3C[C@H](F)C4)nc2c1F (relative stereo)	nM	4
C/C=C\c1c(Cl)cc2[nH]ncc2c1-c1ccc2c(N3CCC[C@](O)(CF)C3)nc(OC[C@@]34CCCN3C[C@H](F)C4)nc2c1F (single isomer, unassigned)	nM	4

###

assaySystem: His-tagged KRAS G12D protein (Homo sapiens, UniProt P01116, G12D)
Sequence (P01116 1-188 isoform P01116-2 G12D): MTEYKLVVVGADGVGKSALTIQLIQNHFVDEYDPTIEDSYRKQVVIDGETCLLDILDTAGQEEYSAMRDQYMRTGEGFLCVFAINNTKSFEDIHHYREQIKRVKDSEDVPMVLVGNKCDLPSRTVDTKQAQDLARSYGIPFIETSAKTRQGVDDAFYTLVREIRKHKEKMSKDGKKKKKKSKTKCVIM
assayName: KRAS G12D TR-FRET Assay
pIC50: −log10 of the molar value.
Measured pIC50 by item

molecule	pIC50
CCc1c(F)ccc2cc(O)cc(-c3c(F)cc4c(N5CCC[C@]6(CCO6)C5)nc(OC[C@@]56CCCN5C[C@H](F)C6)nc4c3F)c12 (single isomer, unassigned)	8.30
CCc1c(F)ccc2cc(O)cc(-c3c(F)cc4c(N5CCC(O)C5)nc(OC[C@@]56CCCN5C[C@H](F)C6)nc4c3F)c12 (stereo partly drawn)	6.95
CCc1c(F)ccc2cc(O)cc(-c3c(F)cc4c(N5CCOCC(C)(O)C5)nc(OC[C@@]56CCCN5C[C@H](F)C6)nc4c3F)c12 (single isomer, unassigned) [Example 35]	6.91

###

Measured IC50 by item
assaySystem: His-tagged KRAS G12D protein (Homo sapiens, UniProt P01116, G12D)
assayName: KRAS G12D TR-FRET Assay

compound	IC50 / nM
CC1CCCc2cc(O)cc(-c3ccc4c(N5CCC[C@@](C)(O)C5)nc(OC[C@@]56CCCN5C[C@H](F)C6)nc4c3F)c21 (stereo partly drawn) [Example 96]	10
CCc1cccc2cc(O)cc(-c3c(F)cc4c(N5CCOCC(C)(O)C5)nc(OC[C@@]56CCCN5C[C@H](F)C6)nc4c3F)c12 (single isomer, unassigned) [Example 33]	5
C#Cc1c(F)ccc2cc(O)cc(-c3ccc4c(N5CCC[C@@](C)(O)C5)nc(OC[C@@]56CCCN5C[C@H](F)C6)nc4c3F)c12 [Example 47]	4

###

Measured IC50 by item
assaySystem: His-tagged KRAS G12D protein (Homo sapiens, UniProt P01116, G12D)
assayName: KRAS G12D TR-FRET Assay

molecule	assaySystem	readoutUnits	IC50
CCC1CCCc2cc(O)cc(-c3ccc4c(N5CCC[C@@](C)(O)C5)nc(OC[C@@]56CCCN5C[C@H](F)C6)nc4c3F)c21 (some centres unmarked)	His-tagged KRAS G12D protein (Homo sapiens, UniProt P01116, G12D)	nM	12
Cc1cc2[nH]ncc2c(-c2ccc3c(N4CCC[C@@](C)(O)C4)nc(OC[C@@]45CCCN4C[C@H](F)C5)nc3c2F)c1[C@H]1C[C@H]1C (single isomer, unassigned)	His-tagged KRAS G12D protein (Homo sapiens, UniProt P01116, G12D)	nM	4
CCc1c(F)ccc2cc(O)cc(-c3c(O)cc4c(N5CCCOCC5)nc(OC[C@@]56CCCN5C[C@H](F)C6)nc4c3F)c12	His-tagged KRAS G12D protein (Homo sapiens, UniProt P01116, G12D)	nM	4
CCc1c(F)ccc2cc(O)cc(-c3c(F)cc4c(N5CCC[C@]6(C5)C[C@@H](O)C6)nc(OC[C@@]56CCCN5C[C@H](F)C6)nc4c3F)c12 (single isomer, unassigned)	His-tagged KRAS G12D protein (Homo sapiens, UniProt P01116, G12D)	nM	5
CC1(O)COCCN(c2nc(OC[C@@]34CCCN3C[C@H](F)C4)nc3c(F)c(-c4cc(O)cc5ccc(F)c(F)c45)ccc23)C1 (single isomer, unassigned)	His-tagged KRAS G12D protein (Homo sapiens, UniProt P01116, G12D)	nM	3

###

assaySystem: GDP-bound KRAS protein (aa 1-169), containing both G12D and C118A amino acid substitutions (Homo sapiens, UniProt P01116, C118A/G12D)
assayName: KRAS G12D Coupled Nucleotide Exchange Assay
Assay type: biochemical
Protocol: KRAS G12D Coupled Nucleotide Exchange Assay Following compound pre-incubation, purified SOS protein (aa 564-1049) and GTP (Roche 10106399001) were added to the assay wells and incubated for an additional 30 min. […] The assay plates were then read on a PerkinElmer EnVision Multilabel Reader, using AlphaScreen® technology, and data were analyzed using a 4-parameter logistic model to calculate IC50 values.
Measured IC50 by item

compound	IC50
CCc1c(F)ccc2cc(O)cc(-c3ccc4c(N5C[C@H](N)CC(F)(F)C5)nc(OC[C@@]56CCCN5C[C@H](F)C6)nc4c3F)c12 [Example 4]	0.5 nM
C[C@@]1(O)COCCN(c2nc(OC[C@@]34CCCN3C[C@H](F)C4)nc3c(F)c(-c4cc(O)cc5ccc(F)c(Cl)c45)ccc23)C1 (single isomer, unassigned) [Example 82]	2 nM
CCc1c(F)ccc2cc(O)cc(-c3ccc4c(N5CCC[C@]6(COC(=O)O6)C5)nc(OC[C@@]56CCCN5C[C@H](F)C6)nc4c3F)c12 (single isomer, unassigned) [Example 86]	4 nM
C/C=C\c1c(Cl)cc2[nH]ncc2c1-c1c(F)cc2c(N3CCC[C@]4(CCO4)C3)nc(OC[C@@]34CCCN3C[C@H](F)C4)nc2c1F (single isomer, unassigned) [Example 113]	3 nM
CCc1c(F)ccc2cc(O)cc(-c3c(F)cc4c(N5CCCC6(CCO6)C5)nc(OC[C@@]56CCCN5C[C@H](F)C6)nc4c3F)c12 (single isomer, unassigned) [Example 39]	4 nM

###

assaySystem: His-tagged KRAS G12D protein (Homo sapiens, UniProt P01116, G12D)
assayName: KRAS G12D TR-FRET Assay
Format: binding
Measured IC50 by item

molecule	assaySystem	IC50 (nM)
CCc1c(F)ccc2cc(O)cc(-c3c(F)cc4c(N5CCC[C@]6(CNC(=O)O6)C5)nc(OC[C@@H]5C[C@@H](F)CN5C)nc4c3F)c12 (single isomer, unassigned)	His-tagged KRAS G12D protein (Homo sapiens, UniProt P01116, G12D)	4
C/C=C\c1c(C)cc2[nH]ncc2c1-c1c(F)cc2c(N3CCC[C@]4(CCO4)C3)nc(OC[C@@]34CCCN3C[C@H](F)C4)nc2c1F (single isomer, unassigned)	His-tagged KRAS G12D protein (Homo sapiens, UniProt P01116, G12D)	6
CCc1c(F)ccc2cc(O)cc(-c3ccc4c(N5CCC[C@@](C)(O)C5)nc(OC[C@@]56CCCN5C[C@H](F)C6)nc4c3F)c12	His-tagged KRAS G12D protein (Homo sapiens, UniProt P01116, G12D)	2
CCc1c(F)ccc2cc(O)cc(-c3ccc4c(N5CCCC(O)(C(F)F)C5)nc(OC[C@@]56CCCN5C[C@H](F)C6)nc4c3F)c12 (single isomer, unassigned) [Example 24]	His-tagged KRAS G12D protein (Homo sapiens, UniProt P01116, G12D)	70
C#Cc1cccc2cc(O)cc(-c3ccc4c(N5CC6CC(O)C(C6)C5)nc(OC[C@@]56CCCN5C[C@H](F)C6)nc4c3F)c12 (single isomer, unassigned)	His-tagged KRAS G12D protein (Homo sapiens, UniProt P01116, G12D)	2

###

assaySystem: GDP-bound KRAS protein (aa 1-169), containing both G12D and C118A amino acid substitutions (Homo sapiens, UniProt P01116, C118A/G12D)
assayName: KRAS G12D Coupled Nucleotide Exchange Assay
Assay type: biochemical
Measured IC50 by item
measuredParameter: IC50 (nM)

compound	measuredParameter	recordedMeasurement
C/C=C\c1c(Cl)cc2[nH]ncc2c1-c1c(F)cc2c(N3CCC[C@@](C)(O)C3)nc(OC[C@@]34CCCN3C[C@H](F)C4)nc2c1F [Example 119]	IC50	11
CCc1c(F)ccc2cc(O)cc(-c3ccc4c(N5CCCC6(CNC(=O)O6)C5)nc(OC[C@@]56CCCN5C[C@H](F)C6)nc4c3F)c12 (stereo partly shown)	IC50	4
Oc1cc(Cl)c(C2CC2)c(-c2ccc3c(N4CCCOCC4)nc(OC[C@@]45CCCN4C[C@H](F)C5)nc3c2F)c1	IC50	11
CCc1cccc2cc(O)cc(-c3c(C#N)cc4c(N5CCCOCC5)nc(OC[C@@]56CCCN5C[C@H](F)C6)nc4c3F)c12	IC50	7
CCc1c(F)ccc2cc(O)cc(-c3c(F)cc4c(N5CCC[C@@](C)(O)C5)nc(OC[C@@]56CCCN5C[C@H](F)C6)nc4c3F)c12 (single isomer, unassigned) [Example 2]	IC50	1
Cc1c(Cl)cc2[nH]ncc2c1-c1c(F)cc2c(N3CCC[C@@](C)(O)C3)nc(OC[C@@]34CCCN3C[C@H](F)C4)nc2c1F	IC50	10
C/C=C\c1c(Cl)cc2[nH]ncc2c1-c1c(F)cc2c(N3CCC[C@](O)(CF)C3)nc(OC[C@@]34CCCN3C[C@H](F)C4)nc2c1F (single isomer, unassigned)	IC50	3
C[C@@]1(O)CCCN(c2nc(OC[C@@]34CCCN3C[C@H](F)C4)nc3c(F)c(-c4cc(N)cc(Cl)c4C(F)(F)F)ccc23)C1	IC50	12
C/C=C\c1c(C)cc2[nH]ncc2c1-c1c(F)cc2c(N3CCOC[C@@](C)(O)C3)nc(OC[C@@]34CCCN3C[C@H](F)C4)nc2c1F (single isomer, unassigned)	IC50	1
C#Cc1c(F)ccc2cc(N)cc(-c3c(F)cc4c(N5CCOCC(C)(O)C5)nc(OC[C@@]56CCCN5C[C@H](F)C6)nc4c3F)c12 (stereo partly shown)	IC50	4
CCc1c(F)ccc2cc(O)cc(-c3c(O)cc4c(N5CCCOCC5)nc(OC[C@@]56CCCN5C[C@H](F)C6)nc4c3F)c12	IC50	4
C#Cc1c(F)ccc2cccc(-c3c(F)cc4c(N5CCC[C@@](C)(O)C5)nc(OC[C@@]56CCCN5C[C@H](F)C6)nc4c3F)c12 (single isomer, unassigned) [Example 66]	IC50	589
CCc1c(F)ccc2cc(O)cc(-c3ccc4c(N5CCCC6(CNC(=O)C6)C5)nc(OC[C@@]56CCCN5C[C@H](F)C6)nc4c3F)c12 (stereo partly shown)	IC50	7
CC1(O)COCCN(c2nc(OC[C@@]34CCCN3C[C@H](F)C4)nc3c(F)c(-c4cc(O)cc5ccc(F)c(F)c45)c(F)cc23)C1 (single isomer, unassigned)	IC50	3
C#Cc1c(F)ccc2cc(O)cc(-c3c(F)cc4c(N5CCC[C@@](C)(O)C5)nc(OC[C@@]56CCCN5C[C@H](F)C6)nc4c3F)c12 (single isomer, unassigned) [Example 13]	IC50	1254
CCc1c(F)ccc2cc(O)cc(-c3c(F)cc4c(N5C[C@H]6CC[C@@H](C5)O6)nc(OC[C@@]56CCCN5C[C@H](F)C6)nc4c3F)c12 (relative stereo)	IC50	37
CC1CCCc2cc(O)cc(-c3ccc4c(N5CCC[C@@](C)(O)C5)nc(OC[C@@]56CCCN5C[C@H](F)C6)nc4c3F)c21 (stereo partly shown)	IC50	6
CCc1c(F)ccc2cc(O)cc(-c3ccc4c(N5CCC[C@]6(CNC(=O)O6)C5)nc(OC[C@@]56CCCN5C[C@H](F)C6)nc4c3F)c12 (single isomer, unassigned)	IC50	6
CCc1c(F)ccc2cc(O)cc(-c3ccc4c(N5CCC[C@@]6(CNC(=O)O6)C5)nc(OC[C@@]56CCCN5C[C@H](F)C6)nc4c3F)c12 (single isomer, unassigned)	IC50	5
Cc1cc2[nH]ncc2c(-c2c(F)cc3c(N4CCC[C@@](C)(O)C4)nc(OC[C@@]45CCCN4C[C@H](F)C5)nc3c2F)c1Cl	IC50	23
C#Cc1cccc2cc(O)cc(-c3ccc4c(N5CCC[C@@](C)(O)C5)nc(OC[C@@]56CCCN5C[C@H](F)C6)nc4c3F)c12	IC50	3
CCc1c(F)ccc2cc(O)cc(-c3c(F)cc4c(N5CCCC6(CCC(=O)O6)C5)nc(OC[C@@]56CCCN5C[C@H](F)C6)nc4c3F)c12 (stereo partly shown)	IC50	5
